- TARGET_DESC: eOD-GT8 (engineered outer domain germline-targeting version 8), monomer (HIV-1 gp120 engineered outer domain, …)
QUANTITY_MEASURED: binding result

• G001_gp1_V10_VRC01c_2021-0097 (antibody, V domains shown) VH: QVQLVQSGAEVKKPGASVKVSCKASGHTFTGYYMHWVRQAPGQGLEWMGWINSNSGGTNYAQKFQGWVTMTRDTSINTVYMELNRLTSDDTAVYYCAGGGRSTYYSWWFDPWGQGTLVTVSS VL: EIVLTQSPGTLSLSPGERATLSCRASQSVSSSYLAWYQQKPGQAPRLLIYGASSRATGIPDRFSGSGSGTDFTLTISRLEPEDLAVYYCQQWETFGQGTKVEIK = binds
• G001_gp1_V08_VRC01c_132 (antibody, V domains shown) VH: QVQLVQSGAEVKKPGASVKVSCKASGYTFSGYYMHWVRQAPGQGLEWMGWINPNSGGTNYAQKFQGWVTMTRDTSISTAYMELSRLKSDDTAVYYCARVEHTSGWCFDSWGQGTLVTVSS VL: DIQMTQSPSSLSASVGDRVTITCQASQDISNYLNWYQQKPGKAPKLLISDASNLETGVPSRFSGSGSGTDFTFTISSLQPEDIATYYCQQYDIFGPGTKVEIK = binds
• G001_gp1_V08_VRC01c_2021-0073 (antibody, V domains shown) VH: QVQLVQSGAEVKKPGASVKVSCKASGYTFTGYYMHWVRQAPGQGLEWMGWINPNSGGTNYAQKFQDWVTMTRDTSISTAYMELRRLRSDDTAVYYCARGMSAKWFDSWGQGTLVTVSS VL: EIVLTQSPGTLSLSPGERATLSCRASQSFSNSYVAWYQQKPGQGPRLLIYGASSRATGIPDRFSGSGSGTDFTLTISRLEPEDFAVYYCQQYETFGQGIKLEIT = binds
